molecular target: Melanocortin receptor 3 (Homo sapiens), P41968; test: competition; conditions: modification not given
Sequence (P41968 whole entry): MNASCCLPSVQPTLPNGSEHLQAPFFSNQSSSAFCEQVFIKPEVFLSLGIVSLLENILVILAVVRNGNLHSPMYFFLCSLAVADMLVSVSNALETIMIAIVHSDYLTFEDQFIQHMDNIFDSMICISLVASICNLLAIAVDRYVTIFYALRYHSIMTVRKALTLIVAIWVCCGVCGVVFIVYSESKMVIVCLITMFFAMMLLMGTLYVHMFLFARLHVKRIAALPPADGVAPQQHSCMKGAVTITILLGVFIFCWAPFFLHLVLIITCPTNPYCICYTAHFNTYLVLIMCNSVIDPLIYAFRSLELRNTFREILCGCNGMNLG
Measured parameter: Ki (nM)
Entry rule: numbers only, all in nM.

### Prompt For the binder SYSMEHFRWGKPVGKKRRPVKVYPNGAEDESAEAFPLEF [ACTH, P01189] , report Ki.
### Response 11.1
